Target: SlPIF3 (GST-PIF3) (Solanum lycopersicum, UniProt A0A3Q7EQR7 388-618)
Sequence (A0A3Q7EQR7 entry or part of it): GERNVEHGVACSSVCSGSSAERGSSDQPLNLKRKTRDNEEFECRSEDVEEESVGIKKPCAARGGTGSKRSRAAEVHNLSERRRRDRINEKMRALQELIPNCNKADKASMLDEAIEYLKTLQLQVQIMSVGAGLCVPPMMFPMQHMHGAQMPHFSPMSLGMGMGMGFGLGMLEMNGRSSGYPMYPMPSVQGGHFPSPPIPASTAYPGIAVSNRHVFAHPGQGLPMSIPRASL
Assay: EMSA; LightShift Chemiluminescent EMSA kit, 25 min at 22 C, 6% native PAGE; buffer, salt and pH not stated
Conditions: protein: recombinant; tags: GST (pGEX-4T-1); chain copies: 2; label: biotin; blunt
readout.kind: binding result

{"binder": "GAME11 probe (dsDNA) DNA 1: AAGTAAATTATAAATATACGTGACGAAAACGATCTTTAAAATTCTTTGTA DNA 2: TACAAAGAATTTTAAAGATCGTTTTCGTCACGTATATTTATAATTTACTT", "test.result": "no binding"}
{"binder": "GAME6 probe (dsDNA) DNA 1: ATAATAACACCGTTTCTCTGCTTTAAGCGTGCTTTTTATCTCATAACTAAAAACT DNA 2: AGTTTTTAGTTATGAGATAAAAAGCACGCTTAAAGCAGAGAAACGGTGTTATTAT", "test.result": "no binding"}
{"binder": "GAME2 probe (dsDNA) DNA 1: ATCCCAAAAGAGTTGTTAGGTCGTGCACAAAACCCGTTTTCTGCGAAAAT DNA 2: ATTTTCGCAGAAAACGGGTTTTGTGCACGACCTAACAACTCTTTTGGGAT", "test.result": "no binding"}
